All figures here come from ChEMBL document CHEMBL3808378.

Please go through the items and note down their MIC.
# System: Jonesia denitrificans
# ASSAY: Antibacterial activity against Listeria denitrificans JCM 11481 after 24 hrs by 2 fold dilution method
# Assay type: functional
# CONDITION: JCM 11481, 24 h
Answers are plain numbers, in µM.

// known answers, use as guide
| COMPOUND | MIC [µM] |
| --- | --- |
| COc1cc(C[C@H](C)[C@@H](C)Cc2ccc(O)c(OC)c2)ccc1O | 390 |
| COc1cc(C[C@@H](C)[C@H](C)Cc2ccc(O)c(OC)c2)ccc1O [(-)-DIHYDROGUAIARETICACID] | 390 |
| COc1cc(/C=C/[C@H](C)Cc2ccc(O)c(OC)c2)ccc1O | 3130 |
| COc1cc(CC[C@H](C)Cc2ccc(O)c(OC)c2)ccc1O | 1560 |
| COc1cc(C[C@@H](C)[C@@H](C)Cc2ccc(O)c(OC)c2)ccc1O [MESODIHYDROGUAIARETIC ACID] | 1560 |
| COc1cc(/C=C/[C@@H](C)Cc2ccc(O)c(OC)c2)ccc1O | 3130 |

Entry COc1cc(CC[C@@H](C)Cc2ccc(O)c(OC)c2)ccc1O , tested on Jonesia denitrificans, has a reported MIC of 1560

* * *

# Test system: Colletotrichum lagenaria
# ASSAY: Antifungal activity against Colletotrichum lagenarium assessed as mycelial colony growth levels at 0.25 mM after 5 days by caliper analysis
# Type: functional
TEST READOUT: Activity

// known answers, use as guide
| COMPOUND | TEST READOUT | VALUE REPORTED |
| --- | --- | --- |
| COc1cc(CC[C@H](C)Cc2ccc(O)c(OC)c2)ccc1O | Activity | 43.1% |
| COc1cc(C[C@H](C)[C@@H](C)Cc2ccc(O)c(OC)c2)ccc1O | Activity | 20.1% |
| COc1cc(C[C@@H](C)[C@H](C)Cc2ccc(O)c(OC)c2)ccc1O [(-)-DIHYDROGUAIARETICACID] | Activity | 33.8% |
| COc1cc(CC[C@@H](C)Cc2ccc(O)c(OC)c2)ccc1O | Activity | 39.4% |

Give Activity for each of the items listed below.
1. COc1cc(/C=C/[C@H](C)Cc2ccc(O)c(OC)c2)ccc1O
2. COc1cc(/C=C/[C@@H](C)Cc2ccc(O)c(OC)c2)ccc1O
3. COc1cc(C[C@@H](C)[C@@H](C)Cc2ccc(O)c(OC)c2)ccc1O [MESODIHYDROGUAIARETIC ACID]

(A)
["49.4%", "67.8%", "26%"]

* * *

# System: Culex pipiens
# ASSAY: Antilarvicidal activity against Culex pipiens larvae after 24 hrs
# Format: functional
TEST READOUT: LD50 (×10⁻⁵ M)
Numbers only, in ×10⁻⁵ M.

| COMPOUND | TEST READOUT | UNITS | VALUE REPORTED |
| --- | --- | --- | --- |
| COc1cc(C[C@@H](C)[C@@H](C)Cc2ccc(O)c(OC)c2)ccc1O [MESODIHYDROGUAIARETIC ACID] | LD50 | ×10⁻⁵ M | 5.12 |

Give LD50 for each of the items listed below.
1. COc1cc(CC[C@H](C)Cc2ccc(O)c(OC)c2)ccc1O
2. COc1cc(C[C@@H](C)[C@H](C)Cc2ccc(O)c(OC)c2)ccc1O [(-)-DIHYDROGUAIARETICACID]

(A)
[9.67, 3.52]

* * *

# Tested on: Bacillus subtilis
# ASSAY: Antibacterial activity against Bacillus subtilis subsp. subtilis NBRC 13719 after 24 hrs by 2 fold dilution method
# Format: functional
# CONDITION: NBRC 13719, 24 h
TEST READOUT: MIC
Please state the number and follow it with the unit.

| COMPOUND | SYSTEM | MIC |
| --- | --- | --- |
| COc1cc(CC[C@H](C)Cc2ccc(O)c(OC)c2)ccc1O | Bacillus subtilis | 3.13 mM |
| COc1cc(C[C@@H](C)[C@H](C)Cc2ccc(O)c(OC)c2)ccc1O [(-)-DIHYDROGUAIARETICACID] | Bacillus subtilis | 1.56 mM |
| COc1cc(CC[C@@H](C)Cc2ccc(O)c(OC)c2)ccc1O | Bacillus subtilis | 3.13 mM |
| COc1cc(/C=C/[C@H](C)Cc2ccc(O)c(OC)c2)ccc1O | Bacillus subtilis | 6.25 mM |
| COc1cc(/C=C/[C@@H](C)Cc2ccc(O)c(OC)c2)ccc1O | Bacillus subtilis | 6.25 mM |
| COc1cc(C[C@H](C)[C@@H](C)Cc2ccc(O)c(OC)c2)ccc1O | Bacillus subtilis | 1.56 mM |

Turning now to a further compound:
Entry COc1cc(C[C@@H](C)[C@@H](C)Cc2ccc(O)c(OC)c2)ccc1O [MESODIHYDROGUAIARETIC ACID] , tested on Bacillus subtilis, has a reported MIC of 1.56 mM

* * *

Please go through the items and note down their Activity.
# System: Alternaria alternata
# ASSAY: Antifungal activity against Alternaria alternata assessed as mycelial colony growth at 0.25 mM after 3 days by caliper analysis
# Assay type: functional
Answers are plain numbers, in %.

// known answers, use as guide
| COMPOUND | SYSTEM | UNITS | Activity |
| --- | --- | --- | --- |
| COc1cc(/C=C/[C@@H](C)Cc2ccc(O)c(OC)c2)ccc1O | Alternaria alternata | % | 43.3 |
| COc1cc(C[C@@H](C)[C@@H](C)Cc2ccc(O)c(OC)c2)ccc1O [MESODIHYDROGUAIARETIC ACID] | Alternaria alternata | % | 30 |
| COc1cc(/C=C/[C@H](C)Cc2ccc(O)c(OC)c2)ccc1O | Alternaria alternata | % | 66 |
| COc1cc(CC[C@@H](C)Cc2ccc(O)c(OC)c2)ccc1O | Alternaria alternata | % | 32.3 |
| COc1cc(C[C@@H](C)[C@H](C)Cc2ccc(O)c(OC)c2)ccc1O [(-)-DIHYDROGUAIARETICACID] | Alternaria alternata | % | 32 |

Give Activity for each of the items listed below.
1. COc1cc(CC[C@H](C)Cc2ccc(O)c(OC)c2)ccc1O
2. COc1cc(C[C@H](C)[C@@H](C)Cc2ccc(O)c(OC)c2)ccc1O

(A)
1: 44.4; 2: 38

* * *

Please go through the items and note down their IC50.
# Tested on: HeLa
# ASSAY: Cytotoxicity against human HeLa cells assessed as reduction in cell viability after 48 hrs by WST-8 reduction assay
# Type: functional, cell-based
Answers are plain numbers, in µM.

| MOLECULE | UNITS | IC50 |
| --- | --- | --- |
| COc1cc(C[C@H](C)[C@@H](C)Cc2ccc(O)c(OC)c2)ccc1O | µM | 24 |
| COc1cc(/C=C/[C@@H](C)Cc2ccc(O)c(OC)c2)ccc1O | µM | 19 |
| COc1cc(CC[C@@H](C)Cc2ccc(O)c(OC)c2)ccc1O | µM | 21 |
| COc1cc(CC[C@H](C)Cc2ccc(O)c(OC)c2)ccc1O | µM | 6.1 |

Give IC50 for each of the items listed below.
1. COc1cc(/C=C/[C@H](C)Cc2ccc(O)c(OC)c2)ccc1O
2. COc1cc(C[C@@H](C)[C@@H](C)Cc2ccc(O)c(OC)c2)ccc1O [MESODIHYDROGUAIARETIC ACID]
3. COc1cc(C[C@@H](C)[C@H](C)Cc2ccc(O)c(OC)c2)ccc1O [(-)-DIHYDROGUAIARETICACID]

(A)
18
28
26

* * *

# Test system: Culex pipiens
# ASSAY: Antilarvicidal activity against Culex pipiens larvae after 24 hrs
# Format: functional
TEST READOUT: LD50 (×10⁻⁵ M)
Numbers only, in ×10⁻⁵ M.

| SMI | LD50 / ×10⁻⁵ M |
| --- | --- |
| COc1cc(CC[C@@H](C)Cc2ccc(O)c(OC)c2)ccc1O | 9.9 |
| COc1cc(/C=C/[C@@H](C)Cc2ccc(O)c(OC)c2)ccc1O | 48 |
| COc1cc(/C=C/[C@H](C)Cc2ccc(O)c(OC)c2)ccc1O | 11 |

// LD50 value for COc1cc(C[C@H](C)[C@@H](C)Cc2ccc(O)c(OC)c2)ccc1O : 4.03
